TGI overview
Test system: LOX IMVI melanoma
measurement.notes: NCI tumour cell line growth inhibition, 48 h
assay.endpoint: TGI

compound	result
COc1ccc(NC(=O)CC(=O)NNC(Sc2ccccc2)c2cc(N=Nc3ccc(Br)cc3)ccc2O)cc1 (stereo not drawn)	> 10 µM
NC(=O)C(=CNC(=S)Nc1ccc(S(=O)(=O)Nc2ccccn2)cc1)C(N)=O	> 100 µM
COc1cccc2nc3ccccc3nc12	> 100 µM
CC1C(=O)c2cc3c(cc2CCN(C)Cc2c1ccc1c2OCO1)OCO3 (stereo not drawn)	> 75 µg/mL
CS(C)(=O)=Nn1c(=O)n2n(c1=O)C1c3ccccc3C2c2ccccc21	> 100 µM
O=c1ccc(=O)n(-c2ccccc2)[nH]1	> 100 µM
CC(=O)C1(C)CC(C#N)(C#N)C(C#N)=C1N (stereo not drawn)	> 100 µM
Cc1n[n+]([O-])c(C)cc1[N+](=O)[O-]	57.9 µM
O=Cc1c(-c2ccccc2)[nH]c2ccccc2c1=O	> 100 µM
CSC1=C(C(=O)Nc2ccc(C)cc2)C(N)=NC1=O	> 100 µM
N/C(=N\N=C\c1cc(I)cc(I)c1O)NO	> 100 µM
[N-]=[N+]=Nc1ccc2c(c1)Sc1ccccc1N2CCCCN1CCN(Cc2ccc(C(=O)c3ccc(CSCC(N)C(=O)O)cc3)cc2)CC1 (stereo not drawn)	24.9 µM
CCOC(=O)/C(C#N)=C1\SS/C(=C(/C#N)C(=O)OCC)S1	57.4 µM
COc1ccc2nc3cc([N+](=O)[O-])ccc3c(NNc3ccccc3)c2c1	> 100 µM
COc1ccccc1/C=C/C1=C(C)CCC(c2ccccc2OC)C1C (stereo not drawn)	> 56.8 µM
CN1CCN(c2ccc(NC(=O)c3cncnc3Nc3ccc(OCc4cccc(F)c4)c(Cl)c3)cc2)CC1	1.61 µM
O=C(/C=C/C(Cl)(Cl)Cl)Nc1ccc(Cl)cc1	2.2 µM
C[C@@H]1OC2(O)[C@H]3CCCN3S(=O)(=O)CCN2C1=O (stereo partly drawn)	> 100 µM
CCOC(=O)c1nc2ccccc2nc1Oc1ccc(C#N)cc1	> 100 µM
CCc1cc2c(c3c1CCCC3)CC1(Cc3ccc(C(=O)OC)cc3C1)C2 (stereo not drawn)	> 100 µM
COc1cc(C2c3[nH]c4ccccc4c3[C@@H](Nc3ccc(C#N)cc3)[C@H]3COC(=O)N23)cc(OC)c1O (stereo partly drawn)	0.681 µM
O=C(Cc1csc2nc(-c3ccc(Cl)cc3)cn12)N/N=C/c1ccccc1O	36.1 µM
Cc1cc(S(=O)(=O)NC2=NCCN2Cc2ccccc2)c(S)cc1Cl	> 100 µM

----------
Reported GI50 by item:
System: HT29 colon
measurement.notes: NCI tumour cell line growth inhibition, 48 h

molecule	GI50
CC(c1ccccc1)[C@@H](C(=O)Nc1ccc(I)cc1F)N1C(=O)N[C@H](c2ccc(OC[C@H](O)CO)cc2)C1=O (stereo partly specified)	0.0683 µM
Nc1nnnc2nc[nH]c12	3.79 µM
O=C1c2ccccc2C(=O)c2c1ccc1c(=O)n(-c3ccccc3C(F)(F)F)nnc21	3.43 µM
O=c1c2ccccc2nc(-c2ccccc2Cl)n1-c1nnc(C(F)(F)F)s1	3.18 µM
CN1CCN(c2ccc(NC(=O)c3cncnc3Nc3ccc(OCc4cccc(F)c4)c(Cl)c3)cc2)CC1	1.1 µM
NC1=NC(=O)/C(=C/c2ccc3ncccc3c2)S1	> 25 µM
N#Cc1ccccc1C#C/C=C\C#Cc1ccccc1N	4.38 µM
N#Cc1ccccc1C#C/C=C\C#CC#C/C=C\C#Cc1ccccc1C#N	3.39 µM
O=C(Nc1ccc(-n2ccc3c(NC(=O)c4ccccc4)nccc32)cc1)Nc1cccc(C(F)(F)F)c1	1.85 µM
COc1ccc(-c2nn(-c3ccc(NC(=O)c4cc(Cl)cc(Cl)c4)cc3)cc2-c2ccncc2)cc1Cl	2.26 µM
Cc1ccc(Cl)cc1NC(=O)c1cc2ccccc2cc1O	3.37 µM
OCc1ccc(N2CCc3cc(F)ccc3C2)cc1Cl	0.167 µM
CCOc1ccc2c(c1)CN(Cc1ccc(Cl)cc1)CO2	20.3 µM
CCCCN=C(N)c1ccc(N2CCCN(c3ccc(C(N)=NCCCC)cc3)CC2)cc1	10.7 µM
Cc1ccc(/C=C/c2c(C(=O)/C=C/c3ccc(Cl)cc3)c(C)nc3ccccc23)cc1	2.05 µM
O=C(COc1ccc(OCC(=O)N2C(=O)CN(c3ccccc3)C2=S)cc1)N1C(=O)CN(c2ccccc2)C1=S	> 25 µM

----------
System: NCI-H226 lung
measurement.notes: NCI tumour cell line growth inhibition, 48 h

compound	TGI
COc1cc(C(C[N+](=O)[O-])SC(C)=O)ccc1OCc1ccccc1 (stereo unspecified)	18.1 µM
O=C(Nc1ccccc1C(F)(F)F)c1ccc(NC2=C(Cl)C(=O)N(Cc3ccccc3)C2=O)cc1	92.2 µM
O=C1NC(=S)NC(=O)C1=Cc1ccc(-c2ccccc2)cc1	> 100 µM
CC(C)CCC[C@@H](C)C1CCC2[C@@H]3CCC4C[C@@H](NS(C)(=O)=O)CC[C@]4(C)C3CC[C@@]21C (stereo partly specified)	> 100 µM
CN=C(N)N=Nc1c(O)[nH]c2ccccc12	> 100 µM
O=C1C2c3[nH]c4ccccc4c3C3CCCCCC3C2C(=O)N1c1ccccc1 (stereo unspecified)	> 64.3 µM
N#Cc1ccccc1C#C/C=C\C#CC#C/C=C\C#Cc1ccccc1C#N	> 100 µM
COc1ccccc1/C=C/C1=C(C)CCC(c2ccccc2OC)C1C (stereo unspecified)	0.627 µM
Clc1ccc(OCc2nnc3n2N=C(c2ccc(Br)cc2)CS3)cc1	> 100 µM
NC1=NC(=O)/C(=C/c2ccc3ncccc3c2)S1	> 25 µM
CCCCCCCCCCCCCCCCCCOc1ccccc1CC(=O)OCC[N+](CC)(CC)CC	5.64 µM
O=c1c2ccccc2nc(-c2ccccc2Cl)n1-c1nnc(C(F)(F)F)s1	8.55 µM
COc1ccc(-c2ccccc2)c2[nH]c3c(c12)CCNC3=O	> 100 µM
CC(C)[Si]1(C(C)C)OCC2OC(n3c(C(=O)c4ccccc4)cc(=O)[nH]c3=O)CC2O[Si](C(C)C)(C(C)C)O1 (stereo unspecified)	5.87 µM
Cc1ccc(-c2nc3cc(Cl)c(Cl)cc3nc2C#N)cc1	> 100 µM
COc1cccc(C2=C(c3cn(C)c4cc(F)ccc34)C(=O)NC2=O)c1	> 25 µM
CN1CCN(c2ccc(NC(=O)c3cncnc3Nc3ccc(OCc4cccc(F)c4)c(Cl)c3)cc2)CC1	> 50 µM
Cc1cc(C)c2c(=O)n(CC(O)CN3CCN(CCOCCO)CC3)sc2n1 (stereo unspecified)	> 100 µM
COc1cc(/C=C/c2ccc(Br)cc2)cc(OC)c1OC	56.6 µM
O=C1C=CC(=Nc2cccc3c(N=C4C=CC(=O)O4)cccc23)O1	> 100 µM
Cc1c(-c2ccc(O)cc2)oc(=O)c2ccc(O)cc12	> 100 µM

----------
System: HCC-2998 colon
measurement.notes: NCI tumour cell line growth inhibition, 48 h
assay.endpoint: TGI (µM)

molecule	assay.endpoint	comparison.operator	numeric.result
COC(=O)C1(C)CC2C(C)(CCC3(C)C4=CC=C5C(=CC(=O)C(O)=C5C)C4(C)CCC23C)CC1O (stereo unspecified)	TGI	=	2.9
COc1cc(/C=C/c2ccc(Br)cc2)cc(OC)c1OC	TGI	=	28.1
CN(C)Cc1ccc(C(C)(C)C)cc1-c1cc(C(C)(C)C)ccc1CN(C)C	TGI	=	30.2
COc1ccc2nc(-c3ccccc3)cc(Nc3cccc(C(C)=O)c3)c2c1	TGI	=	45.1
OCCCSCCO	TGI	>	100
CCc1[nH]c(=O)c2oc3cc4ccccc4cc3c2c1C(=O)O	TGI	>	10

----------
Tested on: UACC-62 melanoma
measurement.notes: NCI tumour cell line growth inhibition, 48 h; in the data active = GI50 below about 0.43 µM; inactive = the rest
Labels: y = active, n = inactive

compound	answer.label
Cc1ccc(-c2nc(N3CCNCC3)c3oc(-c4ccccc4)nc3n2)cc1	n
ClCc1ccc(Cn2cnc3c(Cl)ncnc32)cc1	n
Nc1nnnc2nc[nH]c12	n
COc1ccc2nc3cc([N+](=O)[O-])ccc3c(NNc3ccccc3)c2c1	n
COc1cc(/C=C/C(=O)N2CCC=CC2=O)cc(OC)c1OC	n
O=C(Nc1ccccc1C(F)(F)F)c1ccc(NC2=C(Cl)C(=O)N(Cc3ccccc3)C2=O)cc1	n
CCOC(=O)/C(C#N)=C1\SS/C(=C(/C#N)C(=O)OCC)S1	n
CCCCN=C(N)c1ccc(N2CCCN(c3ccc(C(N)=NCCCC)cc3)CC2)cc1	n
COc1ccc(-c2nn(-c3ccc(NC(=O)c4cc(Cl)cc(Cl)c4)cc3)cc2-c2ccncc2)cc1Cl	n
COc1ccc(C(=O)O[C@H]2[C@H](O[C@H]3[C@@H](O)COC(O[C@H]4C[C@H]5[C@@H]6CC=C7C[C@@H](O)CC[C@]7(C)[C@H]6CC[C@]5(C)[C@H]4[C@H](C)C(=O)CCC(C)C)[C@@H]3OC(C)=O)OC[C@@H](O)[C@@H]2O)c(C)c1 (stereo partly drawn)	y
Cc1ccc(NC(=O)Nc2c(Cl)cccc2Cl)cn1	n
COc1ccc(Cn2cc3c(c2)-c2oncc2CC3)cc1OC	y
Clc1ccc2ncc(-c3cccc(NC4CNC4)n3)n2c1	n
